# TARGET_OF_ASSAY: PRMT5/MEP50 complex (Homo sapiens (Human), UniProt O14744)
# Sequence (O14744 2-637): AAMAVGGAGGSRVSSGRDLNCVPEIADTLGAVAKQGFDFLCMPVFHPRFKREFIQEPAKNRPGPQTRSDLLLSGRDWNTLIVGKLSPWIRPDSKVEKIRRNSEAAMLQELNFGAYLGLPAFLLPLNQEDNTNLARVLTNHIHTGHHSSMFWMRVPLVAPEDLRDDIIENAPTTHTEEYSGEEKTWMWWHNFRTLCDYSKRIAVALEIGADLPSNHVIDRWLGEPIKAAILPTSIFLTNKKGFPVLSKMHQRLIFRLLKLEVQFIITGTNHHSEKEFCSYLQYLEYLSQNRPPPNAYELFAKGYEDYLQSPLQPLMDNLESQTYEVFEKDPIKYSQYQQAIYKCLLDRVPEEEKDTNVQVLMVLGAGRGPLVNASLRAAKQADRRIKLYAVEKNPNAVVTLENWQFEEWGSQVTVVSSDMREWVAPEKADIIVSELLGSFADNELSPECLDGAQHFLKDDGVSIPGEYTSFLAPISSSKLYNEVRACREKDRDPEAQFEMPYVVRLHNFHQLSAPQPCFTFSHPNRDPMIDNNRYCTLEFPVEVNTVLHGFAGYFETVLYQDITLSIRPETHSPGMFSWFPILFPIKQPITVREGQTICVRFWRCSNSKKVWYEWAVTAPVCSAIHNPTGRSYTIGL
# Sequence (Q9BQA1 2-342 partner): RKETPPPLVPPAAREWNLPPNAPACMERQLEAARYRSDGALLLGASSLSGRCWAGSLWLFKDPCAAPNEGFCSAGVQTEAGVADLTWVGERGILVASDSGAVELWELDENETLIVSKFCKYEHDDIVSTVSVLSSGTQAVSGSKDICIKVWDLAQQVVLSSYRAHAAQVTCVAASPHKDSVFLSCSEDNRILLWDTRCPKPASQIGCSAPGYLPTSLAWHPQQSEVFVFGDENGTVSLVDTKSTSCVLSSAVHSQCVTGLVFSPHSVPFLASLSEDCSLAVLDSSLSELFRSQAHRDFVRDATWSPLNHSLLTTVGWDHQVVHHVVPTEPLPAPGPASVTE
# TEST: PRMT5:MEP50 HotSpot Assay (full-length histone H2A substrate, plus and minus MTA)
# Assay type: biochemical
# PROTOCOL_CONDITIONS: IC50 + 2 μM MTA, in the presence of 2 μM MTA
MEASURED_ENDPOINT: pIC50
The read-out pIC50 is expressed as -log10 of concentration in moles per litre.

Req: Look up pIC50 of CCc1c(OC)ccc(-c2c(-c3ccc4c(=O)[nH]nc(CN)c4c3)cnn2C)c1C#N [Example 4-201] and report it.
Resp: 6.02

Req: Input CCOc1ccn2ncc(-c3ccc4c(=O)[nH]nc(CN)c4c3)c2c1 [Example 4-112] , output reported pIC50.
Resp: 5.99

Req: Query pIC50 for Cn1ncc(-c2ccc3c(=O)[nH]nc(CN)c3c2)c1-c1cc2ccccc2cc1C#N [Example 4-128]
Resp: 5.88

----------
# TARGET_OF_ASSAY: PRMT5/MEP50 complex (Homo sapiens (Human), UniProt O14744)
# TEST: PRMT5:MEP50 FlashPlate Assay (histone H4 peptide substrate, plus and minus MTA)
# Format: biochemical
# PROTOCOL_CONDITIONS: in the absence of MTA, read-out: IC50
pIC50: −log10 of the molar value.
MEASURED_ENDPOINT: pIC50

{"columns": ["SAMPLE_SMILES", "TARGET_OF_ASSAY", "pIC50"],
 "data": [
  ["NCc1n[nH]c(=O)c2ccc(-c3cccnn3)cc12", "PRMT5/MEP50 complex (Homo sapiens (Human), UniProt O14744)", "< 4.00"]
]}

Req: Recall and state the measured pIC50 for Cc1nn(C)cc1-c1ccc2c(=O)[nH]nc(CN)c2c1 .
Resp: < 4.00

Req: Hello, please tell me recorded pIC50 for this one: Cn1cc(-c2ccc3c(=O)[nH]nc(CN)c3c2)c(C(F)(F)F)n1
Resp: < 4.00

----------
# TARGET_OF_ASSAY: PRMT5/MEP50 complex (Homo sapiens (Human))
# TEST: PRMT5:MEP50 HotSpot Assay (full-length histone H2A substrate, plus and minus MTA)
# Assay type: biochemical
# PROTOCOL_CONDITIONS: IC50 + 2 μM MTA, in the presence of 2 μM MTA
pIC50: −log10 of the molar value.
Criterion: pIC50 meeting or surpassing 6. Met: condition met. Not met: condition not met.

{"columns": ["MOLECULE", "ASSIGNED_CLASS"],
 "data": [
  ["Cc1cc(Cl)cc(-c2c(-c3ccc4c(=O)[nH]nc(CN)c4c3)cnn2C)c1C#N [Example 4-180]", "condition met"],
  ["NCc1n[nH]c(=O)c2ccc(-c3cnc4[nH]cc(Cl)c4c3)cc12 [Example 4-44]", "condition not met"],
  ["CN(c1cncc(-c2ccc3c(=O)[nH]nc(CN)c3c2)c1)c1cccc2cccnc12 [Example 4-122]", "condition not met"]
]}

Req: API: above_or_equal(metric=pIC50, cutoff=6) for item Cn1ncc(-c2ccc3c(=O)[nH]nc(CN)c3c2)c1OCc1cccc(Cl)c1 [Example 4-155]
Resp: condition not met

Req: Check this molecule for pIC50 at or above 6: NCc1n[nH]c(=O)c2ccc(-c3cncc(C4CCCCC4)c3)cc12 [Example 14-1]
Resp: condition not met

Req: Exam item: decide whether the reported pIC50 for Cn1ncc(-c2ccc3c(=O)[nH]nc(CN)c3c2)c1-c1ccc(C2CC2)cc1C#N [Example 4-126] is at least 6.
Resp: condition met

Values were extracted from patent US11479551B2.
